test system: Mycobacterium tuberculosis Erdman (autoluminescent); assay: AUC25, normalised area under dose response up to IC25 (three-drug combination) (fraction (0-1)); higher = more potent at low dose; conditions: in vitro model: cholesterol-high 0.2 mM; time point: terminal (~4-5 doublings, model-specific)
# AUC25 values compiled below
experimentalEndpoint: AUC25

CC[C@@H](CO)NCCN[C@@H](CC)CO [ethambutol] + NNC(=O)c1ccncc1 [isoniazid] + CO[C@H]1/C=C/O[C@@]2(C)Oc3c(C)c(O)c4c(O)c(c(/C=N/N5CCN(C6CCCC6)CC5)c(O)c4c3C2=O)NC(=O)/C(C)=C\C=C\[C@H](C)[C@H](O)[C@@H](C)[C@@H](O)[C@@H](C)[C@H](OC(C)=O)[C@@H]1C [rifapentine] :: 0.0378
COc1nc2ccc(Br)cc2cc1[C@@H](c1ccccc1)[C@@](O)(CCN(C)C)c1cccc2ccccc12 [bedaquiline] + CC(C)/N=c1\cc2n(-c3ccc(Cl)cc3)c3ccccc3nc-2cc1Nc1ccc(Cl)cc1 [clofazimine] + NNC(=O)c1ccncc1 [isoniazid] :: 0.0685
COc1c(N2C[C@@H]3CCCN[C@@H]3C2)c(F)cc2c(=O)c(C(=O)O)cn(C3CC3)c12 [moxifloxacin] + NC(=O)c1cnccn1 [pyrazinamide] + CO[C@H]1/C=C/O[C@@]2(C)Oc3c(C)c(O)c4c(O)c(c(/C=N/N5CCN(C)CC5)c(O)c4c3C2=O)NC(=O)/C(C)=C\C=C\[C@H](C)[C@H](O)[C@@H](C)[C@@H](O)[C@@H](C)[C@H](OC(C)=O)[C@@H]1C [rifampicin] :: 0.0879

====

system: Mycobacterium tuberculosis Erdman (autoluminescent); assay: GRinf, maximum normalised growth rate inhibition (three-drug combination) (unitless (-1 to 1)); higher = less effect (negative = killing); details: in vitro model: standard 7H9 glycerol; time point: constant = terminal
# GRinf values compiled below
experimentalEndpoint: GRinf

NNC(=O)c1ccncc1 [isoniazid] + O=[N+]([O-])c1cn2c(n1)OC[C@@H](OCc1ccc(OC(F)(F)F)cc1)C2 [pretomanid] + CO[C@H]1/C=C/O[C@@]2(C)Oc3c(C)c(O)c4c(O)c(c(/C=N/N5CCN(C6CCCC6)CC5)c(O)c4c3C2=O)NC(=O)/C(C)=C\C=C\[C@H](C)[C@H](O)[C@@H](C)[C@@H](O)[C@@H](C)[C@H](OC(C)=O)[C@@H]1C [rifapentine] :: 0.179
CC[C@@H](CO)NCCN[C@@H](CC)CO [ethambutol] + O=[N+]([O-])c1cn2c(n1)OC[C@@H](OCc1ccc(OC(F)(F)F)cc1)C2 [pretomanid] + CO[C@H]1/C=C/O[C@@]2(C)Oc3c(C)c(O)c4c(O)c(c(/C=N/N5CCN(C)CC5)c(O)c4c3C2=O)NC(=O)/C(C)=C\C=C\[C@H](C)[C@H](O)[C@@H](C)[C@@H](O)[C@@H](C)[C@H](OC(C)=O)[C@@H]1C [rifampicin] :: 0.0317
COc1nc2ccc(Br)cc2cc1[C@@H](c1ccccc1)[C@@](O)(CCN(C)C)c1cccc2ccccc12 [bedaquiline] + CC[C@@H](CO)NCCN[C@@H](CC)CO [ethambutol] + O=[N+]([O-])c1cn2c(n1)OC[C@@H](OCc1ccc(OC(F)(F)F)cc1)C2 [pretomanid] :: -0.0976

====

# GRinf values compiled below
system: Mycobacterium tuberculosis Erdman (autoluminescent); test: GRinf, maximum normalised growth rate inhibition (three-drug combination) (unitless (-1 to 1)); higher = less effect (negative = killing); settings: in vitro model: valerate; time point: constant (~7 days, model-specific)
experimentalEndpoint: GRinf

COc1nc2ccc(Br)cc2cc1[C@@H](c1ccccc1)[C@@](O)(CCN(C)C)c1cccc2ccccc12 [bedaquiline] + NNC(=O)c1ccncc1 [isoniazid] + CC(=O)NC[C@H]1CN(c2ccc(N3CCOCC3)c(F)c2)C(=O)O1 [linezolid] :: -0.345
COc1nc2ccc(Br)cc2cc1[C@@H](c1ccccc1)[C@@](O)(CCN(C)C)c1cccc2ccccc12 [bedaquiline] + CC(C)/N=c1\cc2n(-c3ccc(Cl)cc3)c3ccccc3nc-2cc1Nc1ccc(Cl)cc1 [clofazimine] + CC[C@@H](CO)NCCN[C@@H](CC)CO [ethambutol] :: -0.0899
COc1c(N2C[C@@H]3CCCN[C@@H]3C2)c(F)cc2c(=O)c(C(=O)O)cn(C3CC3)c12 [moxifloxacin] + O=[N+]([O-])c1cn2c(n1)OC[C@@H](OCc1ccc(OC(F)(F)F)cc1)C2 [pretomanid] + NC(=O)c1cnccn1 [pyrazinamide] :: 0.0242
CC(C)/N=c1\cc2n(-c3ccc(Cl)cc3)c3ccccc3nc-2cc1Nc1ccc(Cl)cc1 [clofazimine] + COc1c(N2C[C@@H]3CCCN[C@@H]3C2)c(F)cc2c(=O)c(C(=O)O)cn(C3CC3)c12 [moxifloxacin] + O=[N+]([O-])c1cn2c(n1)OC[C@@H](OCc1ccc(OC(F)(F)F)cc1)C2 [pretomanid] :: -0.0836
CC(C)/N=c1\cc2n(-c3ccc(Cl)cc3)c3ccccc3nc-2cc1Nc1ccc(Cl)cc1 [clofazimine] + NNC(=O)c1ccncc1 [isoniazid] + COc1c(N2C[C@@H]3CCCN[C@@H]3C2)c(F)cc2c(=O)c(C(=O)O)cn(C3CC3)c12 [moxifloxacin] :: 0.0938
CC(C)/N=c1\cc2n(-c3ccc(Cl)cc3)c3ccccc3nc-2cc1Nc1ccc(Cl)cc1 [clofazimine] + O=[N+]([O-])c1cn2c(n1)OC[C@@H](OCc1ccc(OC(F)(F)F)cc1)C2 [pretomanid] + CO[C@H]1/C=C/O[C@@]2(C)Oc3c(C)c(O)c4c(O)c(c(/C=N/N5CCN(C)CC5)c(O)c4c3C2=O)NC(=O)/C(C)=C\C=C\[C@H](C)[C@H](O)[C@@H](C)[C@@H](O)[C@@H](C)[C@H](OC(C)=O)[C@@H]1C [rifampicin] :: 0.0268
COc1nc2ccc(Br)cc2cc1[C@@H](c1ccccc1)[C@@](O)(CCN(C)C)c1cccc2ccccc12 [bedaquiline] + CC[C@@H](CO)NCCN[C@@H](CC)CO [ethambutol] + CC(=O)NC[C@H]1CN(c2ccc(N3CCOCC3)c(F)c2)C(=O)O1 [linezolid] :: -0.161

====

# Einf values compiled below
tested on: Mycobacterium tuberculosis Erdman (autoluminescent); assay: Einf, fitted maximum growth inhibition of three-drug combination (fraction); higher = stronger maximal inhibition; details: in vitro model: dormancy (butyrate + nitrate, low O2); time point: terminal (~4-5 doublings, model-specific)
experimentalEndpoint: Einf

CC(C)/N=c1\cc2n(-c3ccc(Cl)cc3)c3ccccc3nc-2cc1Nc1ccc(Cl)cc1 [clofazimine] + O=[N+]([O-])c1cn2c(n1)OC[C@@H](OCc1ccc(OC(F)(F)F)cc1)C2 [pretomanid] + NC(=O)c1cnccn1 [pyrazinamide] :: 0.989
CC(C)/N=c1\cc2n(-c3ccc(Cl)cc3)c3ccccc3nc-2cc1Nc1ccc(Cl)cc1 [clofazimine] + CC(=O)NC[C@H]1CN(c2ccc(N3CCOCC3)c(F)c2)C(=O)O1 [linezolid] + COc1c(N2C[C@@H]3CCCN[C@@H]3C2)c(F)cc2c(=O)c(C(=O)O)cn(C3CC3)c12 [moxifloxacin] :: 0.983
COc1nc2ccc(Br)cc2cc1[C@@H](c1ccccc1)[C@@](O)(CCN(C)C)c1cccc2ccccc12 [bedaquiline] + CC[C@@H](CO)NCCN[C@@H](CC)CO [ethambutol] + COc1c(N2C[C@@H]3CCCN[C@@H]3C2)c(F)cc2c(=O)c(C(=O)O)cn(C3CC3)c12 [moxifloxacin] :: 0.987
CC(C)/N=c1\cc2n(-c3ccc(Cl)cc3)c3ccccc3nc-2cc1Nc1ccc(Cl)cc1 [clofazimine] + COc1c(N2C[C@@H]3CCCN[C@@H]3C2)c(F)cc2c(=O)c(C(=O)O)cn(C3CC3)c12 [moxifloxacin] + O=[N+]([O-])c1cn2c(n1)OC[C@@H](OCc1ccc(OC(F)(F)F)cc1)C2 [pretomanid] :: 0.981

====

test system: Mycobacterium tuberculosis Erdman (autoluminescent); assay: FIC50 (Loewe) at 50% inhibition (log2); higher = more antagonistic; conditions: in vitro model: dormancy (butyrate + nitrate, low O2); time point: terminal (~4-5 doublings, model-specific)
# FIC50 values compiled below
experimentalEndpoint: FIC50

COc1nc2ccc(Br)cc2cc1[C@@H](c1ccccc1)[C@@](O)(CCN(C)C)c1cccc2ccccc12 [bedaquiline] + CC[C@@H](CO)NCCN[C@@H](CC)CO [ethambutol] :: 0.336
COc1c(N2C[C@@H]3CCCN[C@@H]3C2)c(F)cc2c(=O)c(C(=O)O)cn(C3CC3)c12 [moxifloxacin] + CO[C@H]1/C=C/O[C@@]2(C)Oc3c(C)c(O)c4c(O)c(c(/C=N/N5CCN(C6CCCC6)CC5)c(O)c4c3C2=O)NC(=O)/C(C)=C\C=C\[C@H](C)[C@H](O)[C@@H](C)[C@@H](O)[C@@H](C)[C@H](OC(C)=O)[C@@H]1C [rifapentine] :: 0.72
